Hello, the source for this data is patent US20230287003A1, in case you need it.

target: human BCL6 BTB domain (Trx-6×His-BCL6) / BCOR-AF633 peptide (Homo sapiens (Human), UniProt P41182)
protocol_text: HTRF assay
Assay type: binding
assay_context: read-out: IC50 in the HTRF assay
Quick reference for IC50 among some molecules

Reference set, count: 6
molecule=COc1cnc(N2C[C@@H](C)C(F)(F)[C@@H](C)C2)nc1Nc1ccc2c(c1)c1c(c(=O)n2C)OCC[C@H](C2CC2)N1 outcome_measure=IC50 reading="> 2500 nM"
molecule="CC(C)C1CCOc2c(c3cc(Nc4ccnc(Cl)c4C#N)ccc3n(C)c2=O)N1 (stereo not shown)" outcome_measure=IC50 reading="> 2500 nM"
molecule="Cn1c(=O)c2c(c3cc(Nc4ccnc(Cl)c4C#N)ccc31)NC(CC1CC1)CO2 (stereo not shown)" outcome_measure=IC50 reading="> 2500 nM"
molecule="Cn1c(=O)c2c(c3cc(Nc4ccnc(Cl)c4C#N)ccc31)NC(C1CCC1)CCO2 (stereo not shown)" outcome_measure=IC50 reading="> 2500 nM"
molecule=CC(=O)N1CC2CC(C1)CN(c1ncc(Cl)c(Nc3ccc4c(c3)c3c(c(=O)n4C)C(=O)OC[C@H](C)N3)n1)C2 outcome_measure=IC50 reading="> 2500 nM"
molecule="CC1CC(C)(C)Oc2c(c3cc(Nc4ccnc(Cl)c4C#N)ccc3n(C)c2=O)N1 (stereo not shown)" outcome_measure=IC50 reading="> 2500 nM"

Prompt: Which IC50 is reported for this molecule? "Cn1c(=O)c2c(c3cc(Nc4ccnc(Cl)c4C#N)ccc31)NC(C)(C)COC2=O"
Completion: > 2500 nM
